Attribution: patent US20210388087A1

biological target: T1, CD3 epsilon homodimer protein (UniProt P07766 23-126); assay: SPR Biacore T200, CD3e homodimer on chip, vs unaltered GLS3000 antibody
T1 construct: also called CD3 (CD3 epsilon)
T1 sequence (P07766 23-126): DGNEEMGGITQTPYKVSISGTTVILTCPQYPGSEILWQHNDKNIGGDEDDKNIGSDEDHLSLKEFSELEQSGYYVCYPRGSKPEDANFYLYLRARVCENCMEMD
REPORTED_PROPERTY: ratio of amounts bound (Z=Y/X)

Some solved entries appear below for comparison.
1. GLS3000 N28K (antibody, name in Kabat numbering, V domains shown, one-arm IgG as m2) VH: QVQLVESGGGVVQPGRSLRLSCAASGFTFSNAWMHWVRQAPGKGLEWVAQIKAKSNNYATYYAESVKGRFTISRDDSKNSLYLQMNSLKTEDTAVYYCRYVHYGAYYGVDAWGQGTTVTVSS VL: DIVMTQSPLSLPVTPGEPASISCRSSQSLVHSKRNTYLHWYQQKPGQAPRLLIYKVSNRFSGVPDRFSGSGSGTDFTLKISRVEAEDVGVYYCGQGTQVPYTFGQGTKLEIK = 0.44
2. GLS3000 R24Q (antibody, name in Kabat numbering, V domains shown, one-arm IgG as m2) VH: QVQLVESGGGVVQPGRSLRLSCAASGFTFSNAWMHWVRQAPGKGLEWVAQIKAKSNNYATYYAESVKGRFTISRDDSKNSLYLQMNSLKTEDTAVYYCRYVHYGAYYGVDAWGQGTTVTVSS VL: DIVMTQSPLSLPVTPGEPASISCQSSQSLVHSNRNTYLHWYQQKPGQAPRLLIYKVSNRFSGVPDRFSGSGSGTDFTLKISRVEAEDVGVYYCGQGTQVPYTFGQGTKLEIK = 0.9
3. GLS3000 P95D (antibody, name in Kabat numbering, V domains shown, one-arm IgG as m2) VH: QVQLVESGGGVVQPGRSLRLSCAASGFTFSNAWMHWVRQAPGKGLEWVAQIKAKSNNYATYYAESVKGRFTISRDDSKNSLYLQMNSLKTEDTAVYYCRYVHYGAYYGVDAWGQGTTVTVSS VL: DIVMTQSPLSLPVTPGEPASISCRSSQSLVHSNRNTYLHWYQQKPGQAPRLLIYKVSNRFSGVPDRFSGSGSGTDFTLKISRVEAEDVGVYYCGQGTQVDYTFGQGTKLEIK = 0.24
4. GLS3000 H34I (antibody, name in Kabat numbering, V domains shown, one-arm IgG as m2) VH: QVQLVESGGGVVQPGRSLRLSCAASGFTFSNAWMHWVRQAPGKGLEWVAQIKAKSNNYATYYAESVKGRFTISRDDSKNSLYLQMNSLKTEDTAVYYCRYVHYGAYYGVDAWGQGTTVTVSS VL: DIVMTQSPLSLPVTPGEPASISCRSSQSLVHSNRNTYLIWYQQKPGQAPRLLIYKVSNRFSGVPDRFSGSGSGTDFTLKISRVEAEDVGVYYCGQGTQVPYTFGQGTKLEIK = 0.65
5. GLS3000 N28E (antibody, name in Kabat numbering, V domains shown, one-arm IgG as m2) VH: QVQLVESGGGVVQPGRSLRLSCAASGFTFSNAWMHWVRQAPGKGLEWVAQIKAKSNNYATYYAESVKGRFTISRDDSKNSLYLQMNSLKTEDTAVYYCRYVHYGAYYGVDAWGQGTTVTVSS VL: DIVMTQSPLSLPVTPGEPASISCRSSQSLVHSERNTYLHWYQQKPGQAPRLLIYKVSNRFSGVPDRFSGSGSGTDFTLKISRVEAEDVGVYYCGQGTQVPYTFGQGTKLEIK = 0.4

Each binder below has a reported value. Please supply its ratio of amounts bound (Z=Y/X).
1. GLS3000 K50D (antibody, name in Kabat numbering, V domains shown, one-arm IgG as m2) VH: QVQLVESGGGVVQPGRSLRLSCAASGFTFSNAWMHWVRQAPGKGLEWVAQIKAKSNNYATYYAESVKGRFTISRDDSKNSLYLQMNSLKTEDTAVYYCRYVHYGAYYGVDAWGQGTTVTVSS VL: DIVMTQSPLSLPVTPGEPASISCRSSQSLVHSNRNTYLHWYQQKPGQAPRLLIYDVSNRFSGVPDRFSGSGSGTDFTLKISRVEAEDVGVYYCGQGTQVPYTFGQGTKLEIK
2. GLS3000 H27dL (antibody, name in Kabat numbering, V domains shown, one-arm IgG as m2) VH: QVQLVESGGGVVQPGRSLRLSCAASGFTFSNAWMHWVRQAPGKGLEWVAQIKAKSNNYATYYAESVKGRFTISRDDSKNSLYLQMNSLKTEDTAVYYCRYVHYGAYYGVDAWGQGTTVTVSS VL: DIVMTQSPLSLPVTPGEPASISCRSSQSLVLSNRNTYLHWYQQKPGQAPRLLIYKVSNRFSGVPDRFSGSGSGTDFTLKISRVEAEDVGVYYCGQGTQVPYTFGQGTKLEIK
3. GLS3000 N53I (antibody, name in Kabat numbering, V domains shown, one-arm IgG as m2) VH: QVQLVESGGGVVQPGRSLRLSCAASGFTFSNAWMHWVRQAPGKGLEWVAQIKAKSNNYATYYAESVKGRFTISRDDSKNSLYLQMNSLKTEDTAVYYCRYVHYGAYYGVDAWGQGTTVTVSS VL: DIVMTQSPLSLPVTPGEPASISCRSSQSLVHSNRNTYLHWYQQKPGQAPRLLIYKVSIRFSGVPDRFSGSGSGTDFTLKISRVEAEDVGVYYCGQGTQVPYTFGQGTKLEIK
4. GLS3000 Q90A (antibody, name in Kabat numbering, V domains shown, one-arm IgG as m2) VH: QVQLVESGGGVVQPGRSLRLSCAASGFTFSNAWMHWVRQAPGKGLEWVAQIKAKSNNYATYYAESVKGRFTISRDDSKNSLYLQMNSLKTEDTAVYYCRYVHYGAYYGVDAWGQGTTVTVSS VL: DIVMTQSPLSLPVTPGEPASISCRSSQSLVHSNRNTYLHWYQQKPGQAPRLLIYKVSNRFSGVPDRFSGSGSGTDFTLKISRVEAEDVGVYYCGAGTQVPYTFGQGTKLEIK
5. GLS3000 Y32A (antibody, name in Kabat numbering, V domains shown, one-arm IgG as m2) VH: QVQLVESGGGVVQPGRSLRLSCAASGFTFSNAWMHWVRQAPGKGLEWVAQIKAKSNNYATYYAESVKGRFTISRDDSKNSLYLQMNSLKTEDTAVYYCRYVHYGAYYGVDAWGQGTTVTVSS VL: DIVMTQSPLSLPVTPGEPASISCRSSQSLVHSNRNTALHWYQQKPGQAPRLLIYKVSNRFSGVPDRFSGSGSGTDFTLKISRVEAEDVGVYYCGQGTQVPYTFGQGTKLEIK

1. 0.22
2. 0.3
3. 0.5
4. 0.5
5. 0.24
